experimental.target: Nucleic Acid
assay.notes: Compound was evaluated for its activity against bacterial DNA gyrase
pEC50: −log10 of the molar value.
experimental.readout: pEC50

>>> numeric_result("Cc1cc(-c2c(F)cc3c(=O)c(Cc4c(O)cccc4O)cn(C4CC4)c3c2F)cc(C)n1")
6.85

----------
experimental.target: DNA topoisomerase II (Homo sapiens, UniProt P11388+Q02880)
assay.notes: Inhibitory activity against HeLa cell Topoisomerase II
Type: cell-based
Listing: EC50 of selected compounds
experimental.readout: EC50 (µM)

>>> numeric_result("Cc1cc(-c2c(F)cc3c(=O)c(Cc4ccccc4)cn(C4CC4)c3c2F)cc(C)n1")
3.9
>>> numeric_result("Cc1cc(-c2c(F)cc3c(=O)c(Cc4ccncc4)cn(C4CC4)c3c2F)cc(C)n1")
9.1
>>> numeric_result("Cc1cc(-c2c(F)cc3c(=O)c(Cc4ccccc4NS(C)(=O)=O)cn(C4CC4)c3c2F)cc(C)n1")
3.3

----------
experimental.target: DNA topoisomerase II (Homo sapiens, UniProt P11388+Q02880)
assay.notes: Inhibitory activity against HeLa cell Topoisomerase II
Assay type: cell-based
experimental.readout: EC50 (µM)

>>> numeric_result("CC(=O)Nc1ccccc1Cc1cn(C2CC2)c2c(F)c(-c3cc(C)nc(C)c3)c(F)cc2c1=O")
5.1
>>> numeric_result("Cc1cc(-c2c(F)cc3c(=O)c(Cc4c(O)cccc4O)cn(C4CC4)c3c2F)cc(C)n1")
0.096
>>> numeric_result("Cc1cc(-c2c(F)cc3c(=O)c(Cc4ncc[nH]4)cn(C4CC4)c3c2F)cc(C)n1")
1.1
>>> numeric_result("Cc1cc(-c2c(F)cc3c(=O)c(Cc4ccccc4O)cn(C4CC4)c3c2F)cc(C)n1")
0.33

----------
experimental.target: DNA topoisomerase II (Homo sapiens, UniProt P11388+Q02880)
assay.notes: Inhibitory activity against HeLa cell Topoisomerase II
Assay type: cell-based
experimental.readout: EC50

>>> result("Cc1cc(-c2c(F)cc3c(=O)c(CC4CCCCC4)cn(C4CC4)c3c2F)cc(C)n1")
"> 230 µM"
>>> result("Cc1cc(-c2c(F)cc3c(=O)c(CCc4ccccc4)cn(C4CC4)c3c2F)cc(C)n1")
"> 120 µM"
>>> result("CC(=O)Nc1ccc(Cc2cn(C3CC3)c3c(F)c(-c4cc(C)nc(C)c4)c(F)cc3c2=O)cc1")
"> 100 µM"
>>> result("Cc1cc(-c2c(F)cc3c(=O)c(Cc4cccc5ccccc45)cn(C4CC4)c3c2F)cc(C)n1")
"> 210 µM"
>>> result("Cc1cc(-c2c(F)cc3c(=O)c(Cc4ccc(N(C)C)cc4)cn(C4CC4)c3c2F)cc(C)n1")
"> 210 µM"
